test system: V79-379A; assay: Cytofluorimetric analysis of V79 379A chinese hamster cells incubated under oxic conditions with the compound (10e-4 M); format: cell-based; settings: Cricetulus griseus
Would you please tag the item 1 when its Fluorescence is 30 AU or above, and -1 when it is below?

{"compound": "O=c1c(NCC(O)Cn2ccnc2[N+](=O)[O-])cnc2ccccn12 (stereo not given)", "assigned.class": 1}
{"compound": "N#Cc1c(C(=O)NCCN(CCO)CC(O)Cn2ccnc2[N+](=O)[O-])cn2ccccc12 (stereo not given)", "assigned.class": -1}
{"compound": "CCOC(=O)c1c(C(=O)NCCN(CCO)CC(O)Cn2ccnc2[N+](=O)[O-])cn2ccccc12 (stereo not given)", "assigned.class": 1}
{"compound": "Cc1c(C)n2c(CNCC(O)Cn3ccnc3[N+](=O)[O-])c(C)c(=O)n2c1=O (stereo not given)", "assigned.class": 1}

Input: Decide: Fluorescence of O=[N+]([O-])c1nccn1CC(O)CNc1ccc(-c2cn3ccccc3n2)cc1 (stereo not given) >= 30 AU?
Output: 1

###

tested on: V79-379A; assay: Cytofluorimetric analysis of V79 379A chinese hamster cells incubated under hypoxic conditions with the compound (10e-4 M); type: cell-based; settings: Cricetulus griseus
measurement.name: Fluorescence (AU)
The reply should contain only the number, in AU.

{"compound": "O=c1c(NCC(O)Cn2ccnc2[N+](=O)[O-])cnc2ccccn12 (stereo not drawn)", "unit.symbol": "AU", "Fluorescence": 1750}
{"compound": "N#Cc1c(C(=O)NCCN(CCO)CC(O)Cn2ccnc2[N+](=O)[O-])cn2ccccc12 (stereo not drawn)", "unit.symbol": "AU", "Fluorescence": 81}
{"compound": "Cc1c(C)n2c(CN(C)CC(O)Cn3ccnc3[N+](=O)[O-])c(C)c(=O)n2c1=O (stereo not drawn)", "unit.symbol": "AU", "Fluorescence": 55}
{"compound": "O=[N+]([O-])c1nccn1CC(O)CNc1ccc(-c2cn3ccccc3n2)cc1 (stereo not drawn)", "unit.symbol": "AU", "Fluorescence": 1570}
{"compound": "CCOC(=O)c1c(C(=O)NCCN(CCO)CC(O)Cn2ccnc2[N+](=O)[O-])cn2ccccc12 (stereo not drawn)", "unit.symbol": "AU", "Fluorescence": 1140}

Input: Entry `CCOC(=O)c1c(C)c(CN(C)CCCn2ccnc2[N+](=O)[O-])c2ccccn12` : reported Fluorescence = ?
Output: 765

Input: # lookup: Fluorescence of O=[N+]([O-])c1nccn1CC(O)CNc1ccc(-c2cc3ccccn3c2)cc1 (stereo not drawn)
Output: 169

Input: Can you share its Fluorescence? I mean this compound: Cc1c(C)n2c(CNCC(O)Cn3ccnc3[N+](=O)[O-])c(C)c(=O)n2c1=O (stereo not drawn)
Output: 89
